Target: HiBit-KRAS^G12C (Homo sapiens, UniProt P01116, G12C)
Sequence (P01116 1-186 isoform P01116-2 G12C limits assumed): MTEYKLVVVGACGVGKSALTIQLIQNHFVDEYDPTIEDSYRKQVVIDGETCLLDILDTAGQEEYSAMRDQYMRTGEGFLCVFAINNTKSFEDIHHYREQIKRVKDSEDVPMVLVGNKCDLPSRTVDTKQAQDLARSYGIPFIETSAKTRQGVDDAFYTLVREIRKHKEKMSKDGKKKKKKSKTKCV
Assay: HiBit degradation assay in SW1573 HiBit-KRas^G12C cells
Assay type: cell-based
Set-up: expressed in transfected cells; host or cells: SW1573 (clone E6), modified pcDNA3.1 vector, TK promoter
Conditions: read-out: KRas^G12C-HiBiT (SW1573; 0.5% DMSO) IC50***; SW1573 HiBit-KRas^G12C, 0.5% DMSO, 24 hours
Kindly supply the reported DC50 values for the records listed here.

compound	DC50
C=CC(=O)N1CCN(c2nc(OCCN3CCC(COCC(=O)N[C@H](C(=O)N4C[C@H](O)C[C@H]4C(=O)N[C@@H](C)c4ccc(-c5scnc5C)cc4)C(C)(C)C)CC3)nc3c(F)c(-c4c(C)ccc5[nH]ncc45)c(Cl)cc23)C[C@@H]1CC#N [Compound 128]	0.1 to 1 µM

Would you be so kind as to report DC50 for each listed record?
1. C=CC(=O)N1CCN(c2nc(OCCN3CCC4(CC3)CN(c3cc([C@@H](C(=O)N5C[C@H](O)C[C@H]5C(=O)N[C@@H](C)c5ccc(-c6ccnn6C)cc5)C(C)C)on3)C4)nc3c(F)c(-c4cc(O)cc5ccccc45)c(Cl)cc23)C[C@@H]1CC#N (atropisomer, axis not shown) [Compound 101]
2. C=CC(=O)N1CCN(c2nc(OC[C@@H]3CCN(CCCOCC(=O)N[C@H](C(=O)N4C[C@H](O)C[C@H]4C(=O)N[C@@H](C)c4ccc(-c5scnc5C)cc4)C(C)(C)C)C3)nc3c(F)c(-c4cc(O)cc5ccccc45)c(Cl)cc23)C[C@@H]1CC#N [Compound 95]

**A:**
1. > 1 µM
2. 0.1 to 1 µM

**Q:** Would you mind telling me what DC50 value was observed for C=CC(=O)N1CCN(c2nc(OCCN3CCC(COc4cc([C@H](C(=O)N5C[C@H](O)C[C@H]5C(=O)N[C@@H](C)c5ccc(-c6ccnn6C)cc5)C(C)C)on4)CC3)nc3c(F)c(-c4cc(O)cc5ccccc45)c(Cl)cc23)C[C@@H]1CC#N (atropisomer, axis not shown) [Compound 138] ?
**A:** < 0.1 µM
